System tested: GST-LXRβ ligand-binding domain (Homo sapiens, UniProt P55055, DUP175-175)
Construct: amino acids 156-461; NP009052; made in house; host or cells: E. coli
Sequence (P55055 with tags, fused parts or gaps DUP175-175): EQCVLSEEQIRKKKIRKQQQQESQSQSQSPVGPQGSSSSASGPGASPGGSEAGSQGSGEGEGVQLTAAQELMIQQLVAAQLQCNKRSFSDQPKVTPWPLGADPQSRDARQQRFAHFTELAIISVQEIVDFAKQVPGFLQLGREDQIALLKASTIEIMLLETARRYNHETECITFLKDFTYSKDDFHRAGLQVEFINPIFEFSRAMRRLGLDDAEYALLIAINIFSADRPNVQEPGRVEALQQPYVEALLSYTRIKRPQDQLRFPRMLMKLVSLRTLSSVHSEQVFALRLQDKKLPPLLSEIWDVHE
Assay explanation: TR-FRETβ activity assay (LXRβ-LBD / NCoA3 coactivator peptide, prestimulated with 24(S)-25-epoxycholesterol)
Type: biochemical
Design: key: ag=agonist; ia=inverse agonist
Condition context: agonist or inverse agonist
Measured endpoint: behavior in FRET assay

Sample records with behavior in FRET assay:
Cc1cc(C)c(S(=O)(=O)N(Cc2ccc(-c3cccc(S(=O)(=O)CC(=O)O)c3)cc2)Cc2ccc(C)o2)c(C)c1 = ia
Cc1ccc2cccnc2c1S(=O)(=O)N(Cc1ccc(-c2cccc(C(C)(C)C(=O)NO)c2)cc1)Cc1ccc(C(F)(F)F)o1 = ag
Cc1sc2ccccc2c1S(=O)(=O)N(Cc1ccc(-c2cccc(C(C)(C)C(=O)O)c2)cc1)Cc1ccc(C(F)(F)F)o1 = ia
Cc1cc(C)c(S(=O)(=O)N(Cc2ccc(N3CCCC(CC(=O)O)C3=O)cc2)Cc2ccc(C(F)(F)F)o2)c(C)c1 (stereo not shown) = ia

Problem: Consider the compound shown here: Cc1cc(C)c(S(=O)(=O)N(Cc2ccc(-c3cccc(S(=O)(=O)CC(=O)O)c3)cc2)Cc2ccc(F)cc2Cl)c(C)c1 What is its recorded behavior in FRET assay?
Result: ag

Problem: Consider the compound shown here: Cc1cc(C)c(S(=O)(=O)N(Cc2ccc(C(F)(F)F)o2)CC2CCC(c3cccc(C(C)(C)C(=O)O)c3)CC2)c(C)c1 (stereo not shown) What is its recorded behavior in FRET assay?
Result: ia

Problem: Consider the compound shown here: Cc1cc(C)c(S(=O)(=O)N(Cc2ccc(-c3cccc(S(=O)(=O)O)c3)cc2)Cc2ccc(C(F)(F)F)o2)c(C)c1 What is its recorded behavior in FRET assay?
Result: ia

====

System tested: GST-LXRβ ligand-binding domain (Homo sapiens, UniProt P55055, DUP175-175)
Construct: amino acids 156-461; NP009052
Assay explanation: TR-FRETβ activity assay (LXRβ-LBD / NCoA3 coactivator peptide, prestimulated with 24(S)-25-epoxycholesterol)
Condition context: 1 μM 24(S)-25-epoxycholesterol as prestimulating agonist; read-out: FRETβ activity range (EC50)
Protocol: The tested compounds were usually dissolved, tested and stored as 20 mM stock solutions in DMSO. […] The reaction was mixed thoroughly, equilibrated for 1 h at 4° C. and vicinity of LXRβ and coactivator peptide was detected by measurement of fluorescence in a VictorX4 multiplate reader (PerkinElmer Life Science) using 340 nm as excitation and 615 and 665 nm as emission wavelengths. […]
pEC50: −log10 of the molar value.
Measured endpoint: pEC50

Problem: Consider the compound shown here: Cc1cc(F)cc(C)c1S(=O)(=O)N(Cc1ccc(-c2cccc(S(=O)(=O)CC(=O)O)c2)cc1)Cc1ccc(C(F)(F)F)o1 What is its recorded pEC50?
Result: 5.00 to 6.00

Problem: Consider the compound shown here: Cc1cc(C)c(S(=O)(=O)N(Cc2ccc(-c3cccc(Cc4nn[nH]n4)c3)cc2)Cc2ccc(C(F)(F)F)o2)c(C)c1 What is its recorded pEC50?
Result: 5.00 to 6.00

Problem: Consider the compound shown here: Cc1ccc2ccccc2c1S(=O)(=O)N(Cc1ccc(-c2cccc(C(C)(C)C(=O)O)c2)cc1)C1CCc2ccc(C(F)(F)F)cc21 (stereo not shown) What is its recorded pEC50?
Result: 6.00 to 7.00

Problem: Consider the compound shown here: Cc1cc(C)c(S(=O)(=O)N(CCc2ccc(C(F)(F)F)o2)Cc2ccc(-c3cccc(S(=O)(=O)CC(=O)O)c3)cc2)c(C)c1 What is its recorded pEC50?
Result: 5.00 to 6.00

Problem: Consider the compound shown here: Cc1sc2ccccc2c1S(=O)(=O)N(Cc1ccc(-c2cccc(C(C)(C)C(=O)O)c2)cc1)Cc1ccc(C(F)(F)F)o1 What is its recorded pEC50?
Result: > 7.00

Problem: Consider the compound shown here: Cc1cc(C)c(S(=O)(=O)N(Cc2ccc(-c3cccc(OCC(=O)O)c3)cc2)Cc2ccc(C(F)(F)F)o2)c(C)c1 What is its recorded pEC50?
Result: 5.00 to 6.00

Problem: Consider the compound shown here: Cc1cc(C)c(S(=O)(=O)N(Cc2ccc(-c3cccc(S(=O)(=O)O)c3)cc2)Cc2ccc(C(F)(F)F)o2)c(C)c1 What is its recorded pEC50?
Result: 5.00 to 6.00

Problem: Consider the compound shown here: Cc1cc(C)c(S(=O)(=O)N(Cc2ccc(C(F)(F)F)o2)CC2CC=C(c3cccc(C(C)(C)C(=O)O)c3)CC2)c(C)c1 (stereo not shown) What is its recorded pEC50?
Result: 6.00 to 7.00

Problem: Consider the compound shown here: Cc1cc(F)c(S(=O)(=O)N(Cc2ccc(-c3cccc(S(=O)(=O)CC(=O)O)c3)cc2)Cc2ccc(C(F)(F)F)o2)c(F)c1 What is its recorded pEC50?
Result: 5.00 to 6.00

Problem: Consider the compound shown here: Cc1cc(C)c(S(=O)(=O)N(Cc2ccc(-c3cncc(C(C)(C)C(=O)O)c3)cc2)Cc2ccc(C(F)(F)F)o2)c(C)c1 What is its recorded pEC50?
Result: 6.00 to 7.00

Problem: Consider the compound shown here: Cc1ccc2ncccc2c1S(=O)(=O)N(Cc1ccc(-c2cccc(C(C)(C)C(=O)O)c2)cc1)Cc1ccc(C(F)(F)F)o1 What is its recorded pEC50?
Result: > 7.00

Problem: Consider the compound shown here: Cc1cc(C)c(S(=O)(=O)N(Cc2ccc(-c3cccc(CCC(=O)O)c3)cc2)Cc2ccc(C(F)(F)F)o2)c(C)c1 What is its recorded pEC50?
Result: 6.00 to 7.00

Problem: Consider the compound shown here: Cc1cc(C)c(S(=O)(=O)N(Cc2ccc(N3CCCN(CC(=O)O)C3=O)cc2)Cc2ccc(C(F)(F)F)o2)c(C)c1 What is its recorded pEC50?
Result: < 5.00

Each recorded value in this set is attributed to patent US20200115357A1.
